Assay: cytotoxicity toward Jurkat T cells, primary screen, cytotoxicity control, cell-based, Jurkat E6.1, 60K MLSMR library (AID 463)
Settings: Jurkat E6.1 viability, ATP luminescence, 48 h; at 4 µM; hits give high values
About 710 (1.3%) of roughly 56,000 compounds were called active. This excerpt belongs to a sample that is enriched for actives.
Property: inhibition (%)
Numeric only. Scale: %

Past entries and their recorded results:
| Compound | U | inhibition |
| --- | --- | --- |
| CCOc1ccc(Cn2nnc(C(=O)Nc3ccc(OC)cc3OC)c2N)cc1 | % | -5.8 |
| O=C(CN1CCN(S(=O)(=O)c2ccc(F)cc2)CC1)Nc1ccccc1F | % | -6 |
| COc1c(C)cccc1C(=O)Nc1cc(Cl)ccc1N1CCOCC1 | % | -1 |
| Nc1c(C(=O)NCc2ccccc2)nnn1Cc1cccc(Cl)c1 | % | 83.8 |

input: Could you tell me which inhibition is on file for O=C(Nc1cc(N2CCOCC2)ncn1)NC1(C(F)(F)F)Oc2ccc(Cl)cc2O1 (stereo unspecified) ?
output: 72.6

input: Requested field: inhibition. Item: CCN(CC)C(=O)CSc1nnc(-c2ccc(S(=O)(=O)NCc3ccccc3Cl)cc2)o1
output: -7.3

input: Request the reported inhibition associated with CC(=O)Oc1ccc2c(C)c(CC(C)O)c(=O)oc2c1 (stereo unspecified)
output: -1.3

input: Could you share which inhibition value was measured for c1cnn(-c2cc(N3CCOCC3)ncn2)c1 ?
output: -0.2

input: Request the reported inhibition associated with CC1CCCN(Cc2nc3c(c(=O)n(C)c(=O)n3C)n2Cc2cccc3ccccc23)C1 (stereo unspecified)
output: -3.6

input: Returns the measured inhibition for the input compound. Input: CCOC(=O)N1CCN(C(=O)C2CC(c3ccc(F)cc3)=NO2)CC1 (stereo unspecified)
output: -1.7

input: Return reported inhibition; argument: Cc1ccc(N(CC(O)CN2CCCC2)S(=O)(=O)c2ccccc2)cc1 (stereo unspecified)
output: 2.6

* * *

Test: cytotoxicity toward Jurkat T cells, primary screen, cytotoxicity control, cell-based, Jurkat E6.1, 60K MLSMR library (AID 463)
Conditions: Jurkat E6.1 viability, ATP luminescence, 48 h; at 4 µM
Screen size: about 56,000 compounds; about 710 (1.3%) were called active.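 The calls were made as follows: active = inhibition above the mean inhibition of all tested compounds plus 3 SD (cut at about 28% in these data); inactive = the rest.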 For the sample, actives were picked, then their nearest neighbours and some compounds at random.
Select the correct class. Options are active, inactive and nothing else.

input: Just curious, what result did Cc1nnc(N(Cc2ccco2)C(=O)c2ccno2)s1 get here?
output: inactive

input: Outcome logged for CCCC(=O)Nc1ccc(C(=O)NCCCn2ccnc2)cc1 in this assay:
output: inactive

input: For CCOc1ccccc1C(=O)NCCCn1ccnc1 , what call appears in the results of this test?
output: inactive

input: Test call for this compound, please: CCOC(=O)Cc1csc(NC(=O)CN(C)S(=O)(=O)c2ccc3c(c2)CCC(=O)N3)n1
output: inactive

input: For COc1ccccc1-n1nnnc1S(=O)(=O)Cc1ccc(Cl)cc1 , what call appears in the results of this test?
output: active

input: Which outcome did this test record for the compound CCCCC(=O)Nc1ccc(C(=O)NCCCn2ccnc2)cc1 ?
output: active

* * *

Experiment: cytotoxicity toward Jurkat T cells, primary screen, cytotoxicity control, cell-based, Jurkat E6.1, 60K MLSMR library (AID 463)
Details: Jurkat E6.1 viability, ATP luminescence, 48 h; at 4 µM; hits give high values
Out of some 56,000 compounds screened, about 710 (1.3%) were called active. Only a selection was taken, and actives are over-represented in it overall.
Property: inhibition (%)
The response must be a number in % with no trailing unit.

Example entries begin here.
| Molecule | Reading |
| --- | --- |
| COc1cccc(OC)c1C(=O)Nc1nnc(C(C)C)s1 | 5.1 |
| COc1ccc(Br)cc1S(=O)(=O)N1CCN=C1C | 2.5 |
| C=CCn1c(CSc2nc3ccccc3s2)nnc1SCC(=O)NCc1ccco1 | 0.8 |
| CC1CN(c2cc(=O)n(-c3cccc(Br)c3)c(=O)[nH]2)CC(C)O1 (stereo unspecified) | 1.2 |
| O=C(Cn1cnc2c(cnn2-c2ccc(F)cc2)c1=O)NCCc1ccccc1 | -3 |

input: Find the recorded inhibition belonging to COc1ccc(S(=O)(=O)N2CCOCC2)cc1C(=O)Nc1nc2ccccc2s1 and report it.
output: -2.5

input: inhibition lookup needed for Cc1ccc2[nH]c(=O)c(COC(=O)c3ccccn3)cc2c1 , thanks.
output: -6.3

* * *

Assay: cytotoxicity toward Jurkat T cells, primary screen, cytotoxicity control, cell-based, Jurkat E6.1, 60K MLSMR library (AID 463)
Conditions: Jurkat E6.1 viability, ATP luminescence, 48 h; at 4 µM; hits give high values
About 710 (1.3%) of roughly 56,000 compounds were called active. This excerpt belongs to a sample that is enriched for actives.
Quick list: inhibition per entry.
All answers are understood in %, so give the number only.

| Compound | inhibition [%] |
| --- | --- |
| COC(=O)COc1ccc(S(=O)(=O)Nc2ccc(NC(C)=O)cc2)cc1 | -9.6 |
| Cc1ccccc1Cn1c(=O)[nH]c2ccccc21 | 5.4 |
| CCCCN=C(N)/C(C(=O)OCC)=C(\O)c1ccc(OC)cc1 | -0.7 |

Here is the next item to consider.
input: Fill in the blank: the reported inhibition of Nc1nonc1-c1nc2ccccc2n1Cc1ccc(F)cc1 is ____.
output: 20.3

* * *

Form field: inhibition (one value per entry).
Assay: cytotoxicity toward Jurkat T cells, primary screen, cytotoxicity control, cell-based, Jurkat E6.1, 60K MLSMR library (AID 463)
Conditions: Jurkat E6.1 viability, ATP luminescence, 48 h; at 4 µM; hits give high values
Out of some 56,000 compounds screened, about 710 (1.3%) were called active. The full list was thinned out, with actives kept by preference.
Give just the numeric value; % need not be written.

Here are 10 compounds together with their reported answers.
| Compound | inhibition (%) |
| --- | --- |
| CC(C)Cc1cc(C(=O)NCCc2ccccc2)no1 | 6 |
| COc1ccccc1CNC(=O)C1CCN(S(C)(=O)=O)CC1 | -5.6 |
| CCCc1[nH]nc2c1C(c1ccc(Br)s1)C(C#N)=C(N)O2 (centres undefined) | 29.4 |
| CC(C)Cc1cc(C(=O)Nc2cc(Br)ccc2O)no1 | 60.7 |
| CCc1nnc(NC(=O)C2CCCN2S(=O)(=O)c2ccccc2)s1 (centres undefined) | 2.3 |
| CN(Cc1ccccc1)C(=O)CCNC(=O)Cn1cnc2ccccc2c1=O | 7.8 |
| CCn1c(=N)c(S(=O)(=O)c2ccc(F)cc2)cc2c(=O)n3ccccc3nc21 | -7 |
| Cc1ccc(S(=O)(=O)NC(=O)N2CCCC(C)(C)C2)cc1 | -5.4 |
| O=C(Cn1cnc2c(cnn2-c2ccccc2)c1=O)NCc1ccccc1 | 35.9 |
| CCC(=NC1CC(C)(C)NC(C)(C)C1)C1=C(O)CC(C)(C)CC1=O | -4.2 |

input: What does the data say about its inhibition? Entry: CCc1ccc(N(CC)c2ncnc3nc[nH]c23)cc1
output: 0.9

input: Record request: inhibition value, item CCN1CCCC1CNc1ncnc2c1[nH]c1ccc(F)cc12 (centres undefined)
output: 3.2

input: Consider the compound shown here: COc1ccc(OCc2cccc(C(=O)N3CCCC3)c2)cc1 What is its recorded inhibition?
output: -5.2

input: Return reported inhibition; argument: COc1ccc(-c2cc(C(F)(F)F)n3nc(C(=O)N4CCOCC4)c(Cl)c3n2)cc1
output: -9.2

input: So what does the record say about inhibition for Cc1cccc(NC(=O)COc2ccccc2C)n1 ?
output: 8.1

input: Which inhibition value is on record for Cc1ccc(OCC(=O)Nc2ccc(-c3nc4ncccc4o3)cc2)cc1 ?
output: -9.9

input: Requested read-out: inhibition. Entry: CC1CCCN(Cc2nc3c(c(=O)n(C)c(=O)n3C)n2CC(=O)c2ccccc2)C1 (centres undefined)
output: 4.9

* * *

Assay: cytotoxicity toward Jurkat T cells, primary screen, cytotoxicity control, cell-based, Jurkat E6.1, 60K MLSMR library (AID 463)
Settings: Jurkat E6.1 viability, ATP luminescence, 48 h; at 4 µM; hits give high values
Out of some 56,000 compounds screened, about 710 (1.3%) were called active. The sample holds actives, similar compounds and a random draw of the others, so the mix is not that of the screen.
Property: inhibition (%)
Write the value in % as a bare number.

| Compound | inhibition, % |
| --- | --- |
| Cc1nc(CNS(=O)(=O)c2ccc(Oc3ccccc3)cc2)cs1 | 35.6 |
| COc1cc(C2C(C#N)=C(C)NC3=C2C(=O)CC(C)(C)C3)ccc1O (centres undefined) | 5 |
| O=C(Nc1ccccc1C(F)(F)F)c1cc(-c2ccc(O)cc2)on1 | 16.9 |
| CCOC(=O)c1cnc(-n2nc(C)cc2C)nc1Nc1cccc(C(C)=O)c1 | 2.3 |
| Cc1cc(C)n(-c2ccc(Cl)c(C(=O)O)n2)n1 | -4.6 |

input: State the recorded inhibition for this entry: Cn1c(=O)[nH]c(=O)c2c1nc(CN1CCN(c3ccccc3F)CC1)n2CCc1ccccc1
output: 0

input: // query inhibition value for entry COc1ccc(-c2n[nH]c(C)c2-c2ccc(OC)c(OC)c2)c(O)c1
output: 52

input: I'd like to know its inhibition. The compound in question is COc1ccc(NS(=O)(=O)c2ccc(NC(C)=O)cc2)cc1OC
output: 31.3

input: Data request, read-out inhibition, for CCn1nnc(NC(=O)c2cc(Cl)c(OC)c(Cl)c2)n1
output: -2

input: May I ask what inhibition has been recorded for CCN(CC)S(=O)(=O)c1cccc(C(=O)NCC(=O)OCC(=O)NCc2ccccc2)c1 ?
output: -5.9

input: Could you tell me which inhibition is on file for CCC(=O)Nc1ccc(C(=O)Nc2ccc3c(c2)C(=O)N(CC2CCCO2)C3=O)cc1 (centres undefined) ?
output: -3.3

input: Bench note: what inhibition did O=C(O)c1ccc(F)c(S(=O)(=O)Nc2ccccc2)c1 show?
output: 6.8

input: For the compound shown here, COc1ccc(C(=O)Nc2ccc(S(=O)(=O)Nc3onc(C)c3C)cc2)cc1OC , give the reported inhibition.
output: -3.3

input: # input compound: C=C(C)COc1ccc(-c2n[nH]c(C)c2-c2ccccc2)c(O)c1 ; wanted: its inhibition
output: 22.9

input: Bench note: what inhibition did O=C(CC1N=C2c3ccccc3N=C(SCc3ccccc3Cl)N2C1=O)NCc1ccco1 (centres undefined) show?
output: 8

input: I have this compound here, O=C(c1ccccc1)c1cccn1CC(=O)N1CCN(c2ccc(F)cc2)CC1 , and I need its recorded inhibition.
output: -0.4

input: Data request, read-out inhibition, for Cc1oc(C)c(C(=O)NCCCC(=O)O)c1C(=O)NCCCC(=O)O
output: -3.9

input: Find the recorded inhibition belonging to CCN(CC)S(=O)(=O)c1cccc(C(=O)Nc2ccccc2)c1 and report it.
output: 29.7

input: Suppose we examine the compound Cc1nn(CC(=O)Nc2ccc3c(c2)nc(CN2CCCCC2)n3C)c(=O)c2ccccc12 ; what inhibition value has been reported?
output: 1.4

input: Name the reported inhibition value associated with the compound COC(=O)c1ccc(OC(=O)c2nn(C)cc2Cl)c(OC)c1
output: 2.9

input: Quick one: inhibition of C=CCNC(=O)CCCOc1cccc(C)c1 ?
output: 4.8

input: Name the recorded inhibition for Cn1c(=O)cc(SCC(=O)N2CCCC2)c2cc(Cl)ccc21 .
output: 3.9

input: Report inhibition for CCNS(=O)(=O)c1ccc(NC(=O)Nc2cccc(OC)c2)cc1 please.
output: -3.7

input: # inhibition lookup, item Cc1cc(C)nc(NC(=O)C(C)N2C(=O)c3ccccc3C2=O)n1 (centres undefined)
output: -2.7
